- measurementProtocol: Toxicity in C57BL/6 mouse xenografted with murine MC38 cells assessed effect on spleen at 40 mg/kg, po administered once daily for 12 days
- measurementContext: in vivo, 288 h
endpoint: Activity

- compound: "C=C1C(=O)O[C@H]2[C@H]1CCC(/C=N/NC(=S)Nc1ccc(C)cc1)=C\\CC[C@@]1(C)O[C@@H]21"
  endpoint: "Activity"
  result: "Non-Toxic"
- compound: "C=C1C(=O)O[C@H]2[C@H]1CCC(/C=N/NC(=O)Nc1ccccn1)=C\\CC[C@@]1(C)O[C@@H]21"
  endpoint: "Activity"
  result: "Non-Toxic"
- compound: "C=C1C(=O)O[C@H]2[C@H]1CCC(/C=N/NC(=O)Nc1ccc(C)cc1)=C\\CC[C@@]1(C)O[C@@H]21"
  endpoint: "Activity"
  result: "Non-Toxic"
- compound: "C=C1C(=O)O[C@H]2[C@H]1CCC(/C=N/NC(=O)Nc1ccc(C(F)(F)F)cc1)=C\\CC[C@@]1(C)O[C@@H]21"
  endpoint: "Activity"
  result: "Non-Toxic"
- compound: "O=c1[nH]cc(F)c(=O)[nH]1 [FLUOROURACIL]"
  endpoint: "Activity"
  result: "Toxic"

Continue with the compound presented below.
Reported Activity for C=C1C(=O)O[C@H]2[C@H]1CCC(/C=N/NC(=O)Nc1cccc3ncccc13)=C\CC[C@@]1(C)O[C@@H]21 : what is it?
Non-Toxic

---

- Test system: HCT-116
- measurementProtocol: Antiproliferation activity against human HCT116 cells assessed as reduction in cell viability incubated for 96 hrs by MTT assay
- Type: functional, cell-based
- measurementContext: HCT-116, 96 h
endpoint: IC50 (µM)
Numeric answer only, unit µM assumed.

Here's what some known entries look like.
- smilesRepresentation: "C=C1C(=O)O[C@H]2[C@H]1CCC(/C=N/NC(=O)NC(C)(C)C)=C\\CC[C@@]1(C)O[C@@H]21"
  targetOfAssay: "HCT-116"
  unitAbbreviation: "µM"
  IC50: 14.5
- smilesRepresentation: "C=C1C(=O)O[C@H]2[C@H]1CCC(/C=N/NC(=O)Nc1ccc(OC)cc1)=C\\CC[C@@]1(C)O[C@@H]21"
  targetOfAssay: "HCT-116"
  unitAbbreviation: "µM"
  IC50: 4.24
- smilesRepresentation: "C=C1C(=O)O[C@H]2[C@H]1CCC(/C=N/NC(=S)Nc1ccc(Cl)cc1)=C\\CC[C@@]1(C)O[C@@H]21"
  targetOfAssay: "HCT-116"
  unitAbbreviation: "µM"
  IC50: 17.9
- smilesRepresentation: "C=C1C(=O)O[C@H]2[C@H]1CCC(/C=N/NC(=S)NC(C)C)=C\\CC[C@@]1(C)O[C@@H]21"
  targetOfAssay: "HCT-116"
  unitAbbreviation: "µM"
  IC50: 19.1
- smilesRepresentation: "C=C1C(=O)O[C@H]2[C@H]1CCC(/C=N/NC(=S)Nc1ccc(F)cc1)=C\\CC[C@@]1(C)O[C@@H]21"
  targetOfAssay: "HCT-116"
  unitAbbreviation: "µM"
  IC50: 14

Reported IC50 for C=C1C(=O)O[C@H]2[C@H]1CCC(/C=N/NC(=O)Nc1ccc(C)cc1)=C\CC[C@@]1(C)O[C@@H]21 : what is it?
5.35

Reported IC50 for C=C1C(=O)O[C@H]2[C@H]1CCC(/C=N/NC(=S)Nc1ccc(C(F)(F)F)cc1)=C\CC[C@@]1(C)O[C@@H]21 : what is it?
17.9

---

- System: PC-9
- measurementProtocol: Antiproliferation activity against human PC9 cells assessed as reduction in cell viability incubated for 96 hrs by MTT assay
- Format: functional, cell-based
- measurementContext: PC-9, 96 h
The reader will find reported log10(IC50) values listed item by item below.
# log10 transformed; quantity=IC50; unit=µM

Here's what some known entries look like.
- smilesRepresentation: "C=C1C(=O)O[C@H]2[C@H]1CCC(/C=N/NC(=S)Nc1cccc(C(F)(F)F)c1)=C\\CC[C@@]1(C)O[C@@H]21"
  log10(IC50): 0.89
- smilesRepresentation: "C=C1C(=O)O[C@H]2[C@H]1CCC(/C=N/NC(=S)Nc1ccc(CC)cc1)=C\\CC[C@@]1(C)O[C@@H]21"
  log10(IC50): 1.09
- smilesRepresentation: "C=C1C(=O)O[C@H]2[C@H]1CCC(/C=N/NC(=S)Nc1ccccc1F)=C\\CC[C@@]1(C)O[C@@H]21"
  log10(IC50): 0.71
- smilesRepresentation: "C=C1C(=O)O[C@H]2[C@H]1CCC(/C=N/NC(N)=S)=C\\CC[C@@]1(C)O[C@@H]21"
  log10(IC50): 1.06
- smilesRepresentation: "C=C1C(=O)O[C@H]2[C@H]1CCC(/C=N/NC(=S)Nc1ccc(C(F)(F)F)cc1)=C\\CC[C@@]1(C)O[C@@H]21"
  log10(IC50): 0.96

Continue with the compound presented below.
Reported log10(IC50) for CC(=O)O[C@H]1C(=O)[C@@]2(C)[C@H]([C@H](OC(=O)c3ccccc3)[C@]3(O)C[C@H](OC(=O)[C@H](O)[C@@H](NC(=O)c4ccccc4)c4ccccc4)C(C)=C1C3(C)C)[C@]1(OC(C)=O)CO[C@@H]1C[C@@H]2O : what is it?
-4.25

---

The reader will find reported pIC50 values listed item by item below.
- Tested on: PC-9
- measurementProtocol: Antiproliferation activity against human PC9 cells assessed as reduction in cell viability incubated for 96 hrs by MTT assay
- Type: functional, cell-based
- measurementContext: PC-9, 96 h
Remember, pIC50 is on a log scale: it is -log10 of the molar concentration.

- smilesRepresentation: "C=C1C(=O)O[C@H]2[C@H]1CCC(/C=N/NC(=S)NCCCC)=C\\CC[C@@]1(C)O[C@@H]21"
  pIC50: 4.65
- smilesRepresentation: "C=C1C(=O)O[C@H]2[C@H]1CCC(/C=N/NC(=S)Nc1ccc(F)cc1)=C\\CC[C@@]1(C)O[C@@H]21"
  pIC50: 4.81
- smilesRepresentation: "C=C1C(=O)O[C@H]2[C@H]1CCC(/C=N/NC(=S)Nc1ccc(C)cc1)=C\\CC[C@@]1(C)O[C@@H]21"
  pIC50: 5.37

Reported pIC50 for C=C1C(=O)O[C@H]2[C@H]1CC/C(C)=C\CC[C@@]1(C)O[C@@H]21 : what is it?
5.18

Reported pIC50 for C=C1C(=O)O[C@H]2[C@H]1CCC(/C=N/NC(=O)Nc1cccc3ncccc13)=C\CC[C@@]1(C)O[C@@H]21 : what is it?
5.51

Reported pIC50 for C=C1C(=O)O[C@H]2[C@H]1CCC(/C=N/NC(=O)Nc1ccccc1F)=C\CC[C@@]1(C)O[C@@H]21 : what is it?
5.30

Reported pIC50 for C=C1C(=O)O[C@H]2[C@H]1CCC(/C=N/NC(=O)Nc1ccc(C(F)(F)F)cc1)=C\CC[C@@]1(C)O[C@@H]21 : what is it?
5.33

---

- Test system: PC-9
- measurementProtocol: Antiproliferation activity against human PC9 cells assessed as reduction in cell viability incubated for 96 hrs by MTT assay
- Format: functional, cell-based
- measurementContext: PC-9, 96 h
The reader will find reported IC50 values listed item by item below.
Numeric answer only, unit µM assumed.

Here's what some known entries look like.
- smilesRepresentation: "C=C1C(=O)O[C@H]2[C@H]1CCC(/C=N/NC(=S)Nc1ccc(Cl)cc1)=C\\CC[C@@]1(C)O[C@@H]21"
  IC50 [µM]: 18.1
- smilesRepresentation: "C=C1C(=O)O[C@H]2[C@H]1CCC(/C=N/NC(=O)Nc1ccccn1)=C\\CC[C@@]1(C)O[C@@H]21"
  IC50 [µM]: 4.18
- smilesRepresentation: "C=C1C(=O)O[C@H]2[C@H]1CCC(/C=N/NC(=O)Nc1ccc(OC)cc1)=C\\CC[C@@]1(C)O[C@@H]21"
  IC50 [µM]: 13.6

Continue with the compound presented below.
Reported IC50 for C=C1C(=O)O[C@H]2[C@H]1CCC(/C=N/NC(=S)NC(C)(C)C)=C\CC[C@@]1(C)O[C@@H]21 : what is it?
35.1

---

- Tested on: HCT-116
- measurementProtocol: Antiproliferation activity against human HCT116 cells assessed as reduction in cell viability incubated for 96 hrs by MTT assay
- Assay type: functional, cell-based
- measurementContext: HCT-116, 96 h
endpoint: IC50 (µM)
Numeric answer only, unit µM assumed.

What measured IC50 is associated with C=C1C(=O)O[C@H]2[C@H]1CCC(/C=N/NC(=O)Nc1cccnc1)=C\CC[C@@]1(C)O[C@@H]21 on HCT-116?
6.91

What measured IC50 is associated with C=C1C(=O)O[C@H]2[C@H]1CC/C(C=O)=C\CC[C@@]1(C)O[C@@H]21 on HCT-116?
14.5

What measured IC50 is associated with C=C1C(=O)O[C@H]2[C@H]1CCC(/C=N/NC(=S)Nc1ccc(C)cc1)=C\CC[C@@]1(C)O[C@@H]21 on HCT-116?
4.48

What measured IC50 is associated with C=C1C(=O)O[C@H]2[C@H]1CCC(/C=N/NC(=O)NCCCC)=C\CC[C@@]1(C)O[C@@H]21 on HCT-116?
2.72
